Tested on: Plasmodium berghei
Assay: Luciferase/luciferin-expressing antifolate-resistant parasites were used to infect a culture of HepG2 cells that were pre-incubated with compounds. Infected hepatocytes emit light due to the luciferase reaction. Assay results are presented as the percent inhibition of light emission compared to control. […]
Assay type: functional
Conditions: sporozoite, PBLUC_HILL_SLOPE 11.0, 1.31, PBLUC_R_SQUARED 0.138, 0.609, read-out: LUCIFERASE INFECTION ASSAY - IC50
endpoint name: pIC50
In simple prose, pIC50 is minus the logarithm base ten of a concentration in moles per litre.

Kindly note the recorded pIC50 for O=C(CSc1nnc(-c2ccccc2)[nH]1)N1c2ccccc2OCC1c1ccccc1 (stereo unspecified) , which is 5.20

---

Test system: Plasmodium berghei
Assay: Luciferase/luciferin-expressing antifolate-resistant parasites were used to infect a culture of HepG2 cells that were pre-incubated with compounds. Infected hepatocytes emit light due to the luciferase reaction. Assay results are presented as the percent inhibition of light emission compared to control. […]
Type: functional
Details: sporozoite, PBLUC_HILL_SLOPE 1.78, PBLUC_R_SQUARED 0.852, read-out: LUCIFERASE INFECTION ASSAY - IC50
endpoint name: IC50 (nM)
Dear colleague, please return just the value in nM, with no unit written.

Kindly note the recorded IC50 for COc1cc(/C=N/NC(=O)c2ccccc2NS(=O)(=O)c2cccs2)ccc1OCCC(C)C , which is 307

---

System: Plasmodium berghei
Assay: Luciferase/luciferin-expressing antifolate-resistant parasites were used to infect a culture of HepG2 cells that were pre-incubated with compounds. Infected hepatocytes emit light due to the luciferase reaction. Assay results are presented as the percent inhibition of light emission compared to control. […]
Format: functional
Details: sporozoite, HEPG2TOX_HILL_SLOPE 8.25, HEPG2TOX_R_SQUARED 0.944, PBLUC_HILL_SLOPE 2.7, PBLUC_R_SQUARED 0.838, read-out: LUCIFERASE INFECTION ASSAY - IC50
endpoint name: pIC50
In simple prose, pIC50 is minus the logarithm base ten of a concentration in moles per litre.

Kindly note the recorded pIC50 for CCN(Cc1ccccc1)c1ccc(/C=N/N=C(N)N)cc1 , which is 5.64

---

Reported IC90 is given for each of the following molecules.
Tested on: Plasmodium berghei
Experiment: Luciferase/luciferin-expressing antifolate-resistant parasites were used to infect a culture of HepG2 cells that were pre-incubated with compounds. Infected hepatocytes emit light due to the luciferase reaction. Assay results are presented as the percent inhibition of light emission compared to control. […]
Format: functional
Conditions: sporozoite, read-out: LUCIFERASE INFECTION ASSAY - IC90
Dear colleague, please return just the value in µM, with no unit written.

CCN(CCO)c1ccc(Nc2cc(C(=O)Nc3ccccc3)ncn2)cc1 = 7.92

As a next step, examine the molecule that follows.
Kindly note the recorded IC90 for COCCNC(=O)C1CCN(C(C(=O)c2c[nH]c3ccccc23)c2ccccc2)CC1 (stereo not given) , which is 4.42

---

Test system: Plasmodium berghei
Assay: Luciferase/luciferin-expressing antifolate-resistant parasites were used to infect a culture of HepG2 cells that were pre-incubated with compounds. Infected hepatocytes emit light due to the luciferase reaction. Assay results are presented as the percent inhibition of light emission compared to control. […]
Type: functional
Conditions: sporozoite, HEPG2TOX_HILL_SLOPE 12.4, HEPG2TOX_R_SQUARED 0.875, PBLUC_HILL_SLOPE 8.96, PBLUC_R_SQUARED 0.775, read-out: LUCIFERASE INFECTION ASSAY - IC50
endpoint name: IC50 (µM)
Dear colleague, please return just the value in µM, with no unit written.

Value (IC50, Plasmodium berghei) for record CCOc1cc(/C=C2\CN(CC)C/C(=C\c3ccc(O)c(OCC)c3)C2=O)ccc1O = 3.59
